Measured fold induction at 0.016 mg/ml, listed per entry for reference.
# ASSAY: Genotoxicity in Salmonella typhimurium TA1535 harboring pSK1002 assessed as umu gene induction at 0.016 mg/ml in presence of Sprague-Dawley rat liver S9 fraction after by SOS/umu assay relative to control
# Assay type: toxicity, organism-based
# CONDITION INFO: salmonella enterica subsp. enterica serovar typhimurium, read-out: FC
Please state the value as a number alone, without comment.

// solved cases for fold induction at 0.016 mg/ml follow
- COMPOUND: "COC(=O)c1ccc(C(O)CCN2CC=C(c3ccc(F)cc3)CC2)cc1 (stereo not given)"
  fold induction at 0.016 mg/ml: 1
- COMPOUND: "N#Cc1ccc(N2CCC(NCCC(O)c3ccc(F)c4ccccc34)CC2)c(C(F)(F)F)c1 (stereo in doubt; 72)"
  fold induction at 0.016 mg/ml: 0.6
- COMPOUND: "N#Cc1ccc(C(O)CCN2CC=C(c3ccc(F)cc3)CC2)cc1 (stereo not given)"
  fold induction at 0.016 mg/ml: 0.9
- COMPOUND: "OC(CCN1CCN(C(c2ccccc2)c2ccccc2)CC1)c1ccc(Br)cc1 (stereo not given)"
  fold induction at 0.016 mg/ml: 1

Now consider a different compound.
Query :: What value of fold induction at 0.016 mg/ml has been recorded for this entry: OC(CCN1CCN(C(c2ccccc2)c2ccccc2)CC1)c1ccc(F)c2ccccc12 (stereo not given)
Result :: 0.7
